Biological target: T1, VP1 pentamer of BKV genotype II (recombinant) (BK virus genotype II, UniProt P14996 30-300)
T1 construct: also called GII; VP1 geno II pentamer; not shown: N-terminal His-tag of pESPRIT002; C-terminal biotin acceptor peptide (BAP) of pESPRIT002
Assay: ELISA, coated VP1 pentamer
Measurement label: EC50 (µg/mL)
Output spec: scalar in µg/mL, unitless text.

For antibody B2P8 (antibody, V domains shown) VH: QVQLQESGPGLVKPSETLSLTCTVSGGSIRNSYWSWIRQPPGKGLEWIGYIYYTGTTNSNPSLKSRVTISVHMSQNQISLKLNSVTPADTAVYYCAQGGGSGDLHYWGQGTLVTVSS VL: EIVLTQSPDTLSLSPGARATLSCRASQSVRSNYLAWYQQKPGQAPRLLIYGASSRATAIPDRFSGSGSGTDFTLTITRLEPEDFAVYYCHQYASSPRTFGQGTKVEIK the binder record lists EC50 as 5

For antibody F2P7 (antibody, V domains shown) VH: EVQLVQSGGGLVQPGGSLKLSCAASGFSSSGSEIHWVRQASGRGLEWIGRVRSTANRHAPGYTESVRGTFTVSRDESKNTASLELKSLKIEDTAVYYCTGVRGVISRYFAMDVWGQGTTVTVSS VL: QSALTQPASVSGSPGQSITISCTGTNSDLGSYNYVSWYRLHPGKDPHLIIYDVTHRPSGVSSRFSGSKSGKTASLTISGLQSEDEAEYFCCSYASVGSPIFGGGTKVTVL the binder record lists EC50 as 10

Just for reference, patent EP4659811A1 is where these values come from.
